# TGI annotations
Test system: EKVX NSCLC
TEST_METHOD_NOTES: NCI tumour cell line growth inhibition, 48 h

Past entries and their recorded results:
Cc1ccc(S(=O)(=O)N(C)C)cc1[N+](=O)[O-]: > 100 µM
O=C(Cn1ccnc1[N+](=O)[O-])N(CCO)CCO: > 1250 µM
O=C1C(=O)c2ccc(Br)cc2-c2cc(Br)ccc21: > 100 µM

Proceed to the following item.
Req: Suppose we examine the compound [Cu+2].[Cu+2].[O-]c1ccccc1C=Nc1ccccc1[O-].[O-]c1ccccc1C=Nc1ccccc1[O-] ; what TGI value has been reported?
Resp: 25.9 µM

---

Listed below: TGI values for each entry.
System: HOP-18 NSCLC
TEST_METHOD_NOTES: NCI tumour cell line growth inhibition, 48 h

Examples with their reported TGI follow.
Nc1nc2ncn(CCO)c2c(=O)[nH]1: > 100 µM
Cc1ccc(OP2(=O)Oc3ccc4ccccc4c3CN2c2ccc(Cl)cc2)cc1C (stereo not given): > 100 µM
CCc1nc2c(O)ccc(O)c2nc1C: 35.3 µM
Cc1cccc(C)c1NC(=O)CCC(=O)NNC(=O)c1cc(O)c2ccccc2c1: > 100 µM

Then there is this compound:
Req: Fill in the recorded TGI for this compound, with HOP-18 NSCLC as test system: COc1cc2c(cc1O)[C@H](C)C(c1ccc(Cl)cc1)O2 (stereo not given in full)
Resp: > 100 µM
